# Tested on: 628569-122-R-J1-PDC complex spheroid viability
# assay-remarks: Anticancer human tumor 628569-122-R-J1-PDC patient-derived head and neck squamous carcinoma cell line growth inhibition [CLK]
# stated-conditions: second compound 0.0316 µM; first compound 0.3 µM; hits give low values
# Excerpt: A high-throughput screen of multi-cell type tumor spheroids was designed to identify active combinations of […] and targeted small molecules. Complex spheroids include a stromal component modeled by human endothelial cells (HUVEC) and fibroblasts modeled by human mesenchymal stem cells (MSCs). […] Compounds. […] If the clinical Cmax for an agent had not been determined, the highest concentration tested was 10 microM. […]
recorded-metric: viability, T/C (%)
Give your result in % as a bare value.

Check out these entries, answers already filled in.
INSERT INTO assay_data (molecule, quantitative_readout) VALUES
  ('CC(C)CC(NC(=O)C(Cc1ccccc1)NC(=O)c1cnccn1)B(O)O (stereo not drawn) + CNC(=O)c1ccc(Nc2nc(OC3CCCC3)c3c(-c4ccc5nc(C)oc5c4)c[nH]c3n2)c(OC)c1', 7.23),
  ('C=CC(=O)Nc1cc(Nc2nccc(-c3cn(C)c4ccccc34)n2)c(OC)cc1N(C)CCN(C)C + CNC(=O)c1ccc(Nc2nc(OC3CCCC3)c3c(-c4ccc5nc(C)oc5c4)c[nH]c3n2)c(OC)c1', 53.7);

Next, consider the following molecule.
Item: CC(C)CC(NC(=O)C(Cc1ccccc1)NC(=O)c1cnccn1)B(O)O (stereo not drawn) + CN1CCN(c2cc(C(=O)Nc3cc4cc(-c5cnn(C)c5)ccc4cn3)ccn2)CC1 | viability, T/C: 4.25

---

# System: 628569-122-R-J1-PDC complex spheroid viability
# assay-remarks: Anticancer human tumor 628569-122-R-J1-PDC cell line growth inhibition [CLK];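 note: spheroids exposed to agents for seven days before readout; 100% = DMSO vehicle control viability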
# stated-conditions: second compound 10 µM; first compound 0.316 µM; hits give low values
This section presents compounds with their documented viability, T/C values.
Give your result in % as a bare value.

Check out these entries, answers already filled in.
INSERT INTO measurements (compound, assayed_system, recorded_metric, readout_unit, quantitative_readout) VALUES
  ('COC1C=CCC(C)C(C)S(=O)(=O)NC(=O)c2ccc3c(c2)N(CC2CCC21)CC1(CCCc2cc(Cl)ccc21)CO3 (configuration not stated) + CNC(=O)c1ccc(Nc2nc(OC3CCCC3)c3c(-c4ccc5nc(C)oc5c4)c[nH]c3n2)c(OC)c1', '628569-122-R-J1-PDC complex spheroid viability', 'viability, T/C', '%', 32.1),
  ('CCCS(=O)(=O)Nc1ccc(F)c(C(=O)c2c[nH]c3ncc(-c4ccc(Cl)cc4)cc23)c1F + CN1CCN(c2cc(C(=O)Nc3cc4cc(-c5cnn(C)c5)ccc4cn3)ccn2)CC1', '628569-122-R-J1-PDC complex spheroid viability', 'viability, T/C', '%', 2.11),
  ('CCCS(=O)(=O)Nc1ccc(F)c(C(=O)c2c[nH]c3ncc(-c4ccc(Cl)cc4)cc23)c1F + CNC(=O)c1ccc(Nc2nc(OC3CCCC3)c3c(-c4ccc5nc(C)oc5c4)c[nH]c3n2)c(OC)c1', '628569-122-R-J1-PDC complex spheroid viability', 'viability, T/C', '%', 40.8),
  ('COc1ccc([C@@H](O)c2cc(-c3ncnc4cc(N5CCOCC5)ccc34)c(F)cc2Cl)nn1 + CN1CCN(c2cc(C(=O)Nc3cc4cc(-c5cnn(C)c5)ccc4cn3)ccn2)CC1', '628569-122-R-J1-PDC complex spheroid viability', 'viability, T/C', '%', 3.72),
  ('CC1(C)CCC(CN2CCN(c3ccc(C(=O)NS(=O)(=O)c4ccc(NCC5CCOCC5)c([N+](=O)[O-])c4)c(Oc4cnc5[nH]ccc5c4)c3)CC2)=C(c2ccc(Cl)cc2)C1 + CN1CCN(c2cc(C(=O)Nc3cc4cc(-c5cnn(C)c5)ccc4cn3)ccn2)CC1', '628569-122-R-J1-PDC complex spheroid viability', 'viability, T/C', '%', 4.03),
  ('Nc1ccn(C2OC(CO)C(O)C2(F)F)c(=O)n1 (configuration not stated) + CNC(=O)c1ccc(Nc2nc(OC3CCCC3)c3c(-c4ccc5nc(C)oc5c4)c[nH]c3n2)c(OC)c1', '628569-122-R-J1-PDC complex spheroid viability', 'viability, T/C', '%', 39.5);

Next, consider the following compound.
Item: C=C(F)C(=O)N1CCN(c2nc(OCC3CCCN3C)nc3c2CCN(c2cccc4cccc(Cl)c24)C3)CC1CC#N (configuration not stated) + CN1CCN(c2cc(C(=O)Nc3cc4cc(-c5cnn(C)c5)ccc4cn3)ccn2)CC1 | viability, T/C: 3.57

---

# System: 628569-122-R-J1-PDC complex spheroid viability
# assay-remarks: Anticancer human tumor 628569-122-R-J1-PDC cell line growth inhibition [CLK];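 note: spheroids exposed to agents for seven days before readout; 100% = DMSO vehicle control viability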
# stated-conditions: second compound 0.0316 µM; first compound 10 µM; hits give low values
This section presents compounds with their documented viability, T/C values.

Check out these entries, answers already filled in.
INSERT INTO assay_data (compound, assayed_system, result) VALUES
  ('CC1(C)CCC(CN2CCN(c3ccc(C(=O)NS(=O)(=O)c4ccc(NCC5CCOCC5)c([N+](=O)[O-])c4)c(Oc4cnc5[nH]ccc5c4)c3)CC2)=C(c2ccc(Cl)cc2)C1 + CN1CCN(c2cc(C(=O)Nc3cc4cc(-c5cnn(C)c5)ccc4cn3)ccn2)CC1', '628569-122-R-J1-PDC complex spheroid viability', '85.6%'),
  ('O=C(c1cc(Cc2n[nH]c(=O)c3ccccc23)ccc1F)N1CCN(C(=O)C2CC2)CC1 + CNC(=O)c1ccc(Nc2nc(OC3CCCC3)c3c(-c4ccc5nc(C)oc5c4)c[nH]c3n2)c(OC)c1', '628569-122-R-J1-PDC complex spheroid viability', '61.7%'),
  ('COc1cccc2c1C(=O)c1c(O)c3c(c(O)c1C2=O)CC(O)(C(=O)CO)CC3OC1CC(N)C(O)C(C)O1 (stereo not given) + CNC(=O)c1ccc(Nc2nc(OC3CCCC3)c3c(-c4ccc5nc(C)oc5c4)c[nH]c3n2)c(OC)c1', '628569-122-R-J1-PDC complex spheroid viability', '11.4%');

Item: O=c1[nH]cc(F)c(=O)[nH]1 + CN1CCN(c2cc(C(=O)Nc3cc4cc(-c5cnn(C)c5)ccc4cn3)ccn2)CC1 | viability, T/C: 69.3%

Item: CC(CO)NC(=O)c1cc(-c2ccc(Cl)cc2)nn(-c2cnn(C)c2)c1=O (stereo not given) + CNC(=O)c1ccc(Nc2nc(OC3CCCC3)c3c(-c4ccc5nc(C)oc5c4)c[nH]c3n2)c(OC)c1 | viability, T/C: 169%

Item: Nc1ccccc1NC(=O)c1ccc(CNC(=O)OCc2cccnc2)cc1 + CNC(=O)c1ccc(Nc2nc(OC3CCCC3)c3c(-c4ccc5nc(C)oc5c4)c[nH]c3n2)c(OC)c1 | viability, T/C: 45.6%

Item: CC(Nc1ccc2c(c1)OCCn1cc(N3C(=O)OCC3C(F)F)nc1-2)C(N)=O (stereo not given) + CNC(=O)c1ccc(Nc2nc(OC3CCCC3)c3c(-c4ccc5nc(C)oc5c4)c[nH]c3n2)c(OC)c1 | viability, T/C: 26.5%

Item: CC(CO)NC(=O)c1cc(-c2ccc(Cl)cc2)nn(-c2cnn(C)c2)c1=O (stereo not given) + CN1CCN(c2cc(C(=O)Nc3cc4cc(-c5cnn(C)c5)ccc4cn3)ccn2)CC1 | viability, T/C: 173%

Item: O=c1[nH]cc(F)c(=O)[nH]1 + CNC(=O)c1ccc(Nc2nc(OC3CCCC3)c3c(-c4ccc5nc(C)oc5c4)c[nH]c3n2)c(OC)c1 | viability, T/C: 60.6%

Item: CC(=O)O[C@H]1C(=O)[C@@]2(C)[C@H]([C@H](OC(=O)c3ccccc3)[C@]3(O)C[C@H](OC(=O)[C@H](O)[C@@H](NC(=O)c4ccccc4)c4ccccc4)C(C)=C1C3(C)C)[C@]1(OC(C)=O)CO[C@@H]1C[C@@H]2O + CN1CCN(c2cc(C(=O)Nc3cc4cc(-c5cnn(C)c5)ccc4cn3)ccn2)CC1 | viability, T/C: 54%

---

# System: 628569-122-R-J1-PDC complex spheroid viability
# assay-remarks: Anticancer human tumor 628569-122-R-J1-PDC cell line growth inhibition [CLK];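 note: spheroids exposed to agents for seven days before readout; 100% = DMSO vehicle control viability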
# stated-conditions: second compound 0.316 µM; first compound 0.01 µM; hits give low values
This section presents compounds with their documented viability, T/C values.
Give your result in % as a bare value.

Check out these entries, answers already filled in.
INSERT INTO results (compound, quantitative_readout) VALUES
  ('COc1c(OCCCN2CCOCC2)ccc2c3n(c(=NC(=O)c4cnc(N)nc4)nc12)CCN3 + CN1CCN(c2cc(C(=O)Nc3cc4cc(-c5cnn(C)c5)ccc4cn3)ccn2)CC1', 21.1),
  ('COc1c(OCCCN2CCOCC2)ccc2c3n(c(=NC(=O)c4cnc(N)nc4)nc12)CCN3 + CNC(=O)c1ccc(Nc2nc(OC3CCCC3)c3c(-c4ccc5nc(C)oc5c4)c[nH]c3n2)c(OC)c1', 47.7),
  ('CCN1CCN(Cc2ccc(Nc3ncc(F)c(-c4cc(F)c5nc(C)n(C(C)C)c5c4)n3)nc2)CC1 + CNC(=O)c1ccc(Nc2nc(OC3CCCC3)c3c(-c4ccc5nc(C)oc5c4)c[nH]c3n2)c(OC)c1', 55.6),
  ('CCN1CCN(Cc2ccc(Nc3ncc(F)c(-c4cc(F)c5nc(C)n(C(C)C)c5c4)n3)nc2)CC1 + CN1CCN(c2cc(C(=O)Nc3cc4cc(-c5cnn(C)c5)ccc4cn3)ccn2)CC1', 43.2);

Next, consider the following compound.
Item: Cn1ncnc1[C@H]1c2n[nH]c(=O)c3cc(F)cc(c23)N[C@@H]1c1ccc(F)cc1 + CN1CCN(c2cc(C(=O)Nc3cc4cc(-c5cnn(C)c5)ccc4cn3)ccn2)CC1 | viability, T/C: 34.2

FYI, the data here is from PubChem BioAssay AID2060611.
